All figures here come from paper PMC5014220.

- Target Of Assay: p53/hDM2 interaction (FITC–p53_15–31 / hDM2(17-126) L33E) (Homo sapiens, UniProt Q00987, L33E)
- Construct: hDM2(17-126)
- Test Name: Fluorescence anisotropy (FA) competition assay against p53/hDM2
- Condition Notes: 50 nM FITC–p53(15-31), 150 nM hDM2(17-126) L33E, 40 mM phosphate buffer pH 7.5, 200 mM NaCl, 0.02 mg mL−1 BSA, 5 % DMSO, read after 1 h at room temperature, triplicate, fit ± error
Quantity Measured: pIC50
// scale note: pIC50 = -log10(conc_M); give the bare number

{"Compound": "COC(=O)CC[C@H](CC(C)C)NC(=O)[C@H]1CC[C@@H]1NC(=O)CC[C@H](Cc1c[nH]c2ccccc12)NC(=O)[C@H]1CC[C@@H]1NC(=O)CC[C@@H](C)NC(=O)[C@H](Cc1ccccc1)NC(=O)OC(C)(C)C [Peptide 2]", "pIC50": 4.82}

Attention now shifts to the item below.
pIC50 measured on COC(=O)[C@H](CC(C)C)NC(=O)[C@H]1CC[C@@H]1NC(=O)CC[C@H](Cc1c[nH]c2ccccc12)NC(=O)[C@H]1CC[C@@H]1NC(=O)CC[C@@H](C)NC(=O)[C@H](Cc1ccccc1)NC(=O)OC(C)(C)C [Peptide 1] = 4.24

* * *

- Tested on: α‐chymotrypsin (α‐CT)
- Test Name: Proteolytic stability with α-chymotrypsin (HPLC)
- Format: in vitro ADME
- Condition Notes: α-chymotrypsin type II from bovine pancreas, 1:10000 enzyme/substrate; peptide 200 μM stock in PBS pH 7.50, 2% DMSO; followed by analytical HPLC; fold versus p53_15–31
Quantity Measured: Resistance to α‐CT relative to native p53_15–31

A selection of reference data follows.
{"Molecule": "COC(=O)[C@H](CC(C)C)NC(=O)[C@H]1CC[C@@H]1NC(=O)CC[C@H](Cc1c[nH]c2ccccc12)NC(=O)[C@H]1CC[C@@H]1NC(=O)CC[C@@H](C)NC(=O)[C@H](Cc1ccccc1)NC(C)=O [Peptide 5]", "Result": "≥ 10 fold"}
{"Molecule": "COC(=O)[C@H](CC(C)C)NC(=O)[C@H]1CC[C@@H]1NC(=O)CC[C@H](Cc1ccccc1)NC(=O)[C@H]1CC[C@@H]1NC(=O)CC[C@@H](C)NC(=O)[C@H](Cc1ccccc1)NC(C)=O [Peptide 7]", "Result": "≥ 10 fold"}
{"Molecule": "COC(=O)[C@H](CC(C)C)NC(=O)[C@H]1CC[C@@H]1NC(=O)CC[C@H](Cc1ccccc1)NC(=O)[C@H]1CC[C@@H]1NC(=O)CC[C@@H](C)NC(=O)[C@H](Cc1ccccc1)NC(=O)OC(C)(C)C [Peptide 3]", "Result": "≥ 10 fold"}

Record for COC(=O)CC[C@H](CC(C)C)NC(=O)[C@H]1CC[C@@H]1NC(=O)CC[C@H](Cc1c[nH]c2ccccc12)NC(=O)[C@H]1CC[C@@H]1NC(=O)CC[C@@H](C)NC(=O)[C@H](Cc1ccccc1)NC(C)=O [Peptide 6] under target or system α‐chymotrypsin (α‐CT): Resistance to α‐CT relative to native p53_15–31 reported as ≥ 32 fold

Observed Resistance to α‐CT relative to native p53_15–31, α‐chymotrypsin (α‐CT), COC(=O)CC[C@H](CC(C)C)NC(=O)[C@H]1CC[C@@H]1NC(=O)CC[C@H](Cc1ccccc1)NC(=O)[C@H]1CC[C@@H]1NC(=O)CC[C@@H](C)NC(=O)[C@H](Cc1ccccc1)NC(=O)OC(C)(C)C [Peptide 4] : ≥ 32 fold

Value sought: Resistance to α‐CT relative to native p53_15–31, system α‐chymotrypsin (α‐CT), item COC(=O)[C@H](CC(C)C)NC(=O)[C@H]1CC[C@@H]1NC(=O)CC[C@H](Cc1c[nH]c2ccccc12)NC(=O)[C@H]1CC[C@@H]1NC(=O)CC[C@@H](C)NC(=O)[C@H](Cc1ccccc1)NC(=O)OC(C)(C)C [Peptide 1] . Result: ≥ 10 fold
